# assay.summary: Maximal solubility of CI-994 free base in solvents, HPLC
# Assay type: physicochemical
# experimental.conditions: saline (0.9% NaCl), saline or isotonic; read-out: Conc. in Vehicles, Saline
observed.property: solubility at 2 h (µg/mL)
Give the number; µg/mL is assumed, so skip it.

Recorded solubility at 2 h (molecule CC(=O)Nc1ccc(C(=O)Nc2ccccc2N)cc1 ): 80

Taken from patent US8841346B2.
